Biological target: Histone deacetylase 1 (Homo sapiens)
Sequence (Q13547 whole entry): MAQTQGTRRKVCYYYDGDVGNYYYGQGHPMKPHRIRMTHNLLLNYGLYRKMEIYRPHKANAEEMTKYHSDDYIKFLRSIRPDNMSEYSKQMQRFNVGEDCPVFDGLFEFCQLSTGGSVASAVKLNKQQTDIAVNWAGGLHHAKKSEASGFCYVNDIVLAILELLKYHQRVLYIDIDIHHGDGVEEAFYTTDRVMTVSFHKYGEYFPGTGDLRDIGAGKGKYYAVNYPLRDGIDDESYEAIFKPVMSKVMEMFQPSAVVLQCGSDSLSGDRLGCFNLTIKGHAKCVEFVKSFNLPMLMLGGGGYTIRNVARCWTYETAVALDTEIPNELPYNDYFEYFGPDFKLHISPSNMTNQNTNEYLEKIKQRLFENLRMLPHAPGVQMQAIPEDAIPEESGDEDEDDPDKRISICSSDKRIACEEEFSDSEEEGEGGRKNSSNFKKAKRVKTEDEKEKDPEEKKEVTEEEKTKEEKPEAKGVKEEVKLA
Assay: Inhibition of recombinant human full length HDAC1 using Fluor-de-Lys as substrate after 60 mins by spectrofluorimetric analysis
PARAMETER: IC50 (nM)

In [3]: df
Out[3]:
                                smiles_repr                 target_or_test_system  measurement_unit  measured_result
0  O=C(/C=C/c1ccc(S(=O)(=O)NCCc2cccc3[nH]ccc23)cc1)NO  Histone deacetylase 1 (Homo sapiens)                nM             1.28
1  Cn1ccc2c(CCNS(=O)(=O)c3ccc(/C=C/C(=O)NO)cc3)cccc21  Histone deacetylase 1 (Homo sapiens)                nM             1.34

###

System: PC-3
Assay: cells
Format: functional
Conditions: Homo sapiens, PC-3, 48 h
Description: Growth inhibition of human PC3 cells after 48 hrs by sulforhodamine B assay
PARAMETER: GI50 (nM)

>>> print(df.to_string())
                                smiles_repr  measurement_unit  measured_result
0  O=C(/C=C/c1ccc(S(=O)(=O)NCCc2ccc3[nH]ccc3c2)cc1)NO                nM              310
1  O=C(/C=C/c1cccc(S(=O)(=O)NCCc2ccc3[nH]ccc3c2)c1)NO                nM              330
2  Nc1ccccc1NC(=O)c1ccc(CNC(=O)OCc2cccnc2)cc1                nM              430
3  O=C(/C=C/c1cccc(S(=O)(=O)NCCc2cccc3[nH]ccc23)c1)NO                nM              310
4  Cn1ccc2c(CCNS(=O)(=O)c3ccc(/C=C/C(=O)NO)cc3)cccc21                nM              150

(a) O=C(/C=C/c1ccc(S(=O)(=O)Nc2cccc3[nH]ccc23)cc1)NO
(b) O=C(/C=C/c1ccc(S(=O)(=O)NCCc2cccc3[nH]ccc23)cc1)NO
(c) O=C(/C=C/c1cccc(S(=O)(=O)Nc2ccccc2)c1)NO
(d) O=C(/C=C/c1ccc(S(=O)(=O)NCc2cccc3[nH]ccc23)cc1)NO
In: Order the items by recorded GI50; the first position goes to the largest value. Put the labels in the requested order and write them down.
Out: a, d, c, b
(a: 3490 nM, d: 860 nM, c: 310 nM, b: 140 nM)

###

Target: Histone deacetylase 4 (Homo sapiens)
Sequence (P56524 whole entry): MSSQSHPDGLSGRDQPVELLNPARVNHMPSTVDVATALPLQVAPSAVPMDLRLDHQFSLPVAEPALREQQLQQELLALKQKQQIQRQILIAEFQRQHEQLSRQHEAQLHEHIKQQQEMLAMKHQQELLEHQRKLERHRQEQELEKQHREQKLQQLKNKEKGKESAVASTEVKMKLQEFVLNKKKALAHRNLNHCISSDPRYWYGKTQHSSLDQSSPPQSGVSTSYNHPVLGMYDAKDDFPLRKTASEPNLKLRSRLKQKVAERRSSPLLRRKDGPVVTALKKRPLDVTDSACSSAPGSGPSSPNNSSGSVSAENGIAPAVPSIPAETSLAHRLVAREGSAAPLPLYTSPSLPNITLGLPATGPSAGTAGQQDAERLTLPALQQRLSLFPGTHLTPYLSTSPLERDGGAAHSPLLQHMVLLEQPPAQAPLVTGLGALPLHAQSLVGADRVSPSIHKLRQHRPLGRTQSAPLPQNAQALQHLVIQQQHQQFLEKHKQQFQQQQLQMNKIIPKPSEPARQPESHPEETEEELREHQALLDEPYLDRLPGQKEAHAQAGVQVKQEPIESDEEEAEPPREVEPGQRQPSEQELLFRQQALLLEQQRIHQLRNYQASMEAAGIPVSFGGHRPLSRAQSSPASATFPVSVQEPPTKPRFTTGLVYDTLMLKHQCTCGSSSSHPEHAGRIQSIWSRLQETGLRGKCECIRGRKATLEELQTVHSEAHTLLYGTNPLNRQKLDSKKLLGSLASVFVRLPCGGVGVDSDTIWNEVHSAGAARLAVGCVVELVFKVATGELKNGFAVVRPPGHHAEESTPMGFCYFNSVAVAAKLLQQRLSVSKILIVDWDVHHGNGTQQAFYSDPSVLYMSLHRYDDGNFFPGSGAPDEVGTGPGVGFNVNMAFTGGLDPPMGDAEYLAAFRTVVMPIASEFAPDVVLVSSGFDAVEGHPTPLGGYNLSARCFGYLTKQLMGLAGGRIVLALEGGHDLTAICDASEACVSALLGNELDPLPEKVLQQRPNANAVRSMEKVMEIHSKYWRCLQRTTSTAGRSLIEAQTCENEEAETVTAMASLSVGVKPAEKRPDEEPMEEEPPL
Experiment: Inhibition of recombinant human full length HDAC4 using Fluor-de-Lys as substrate after 60 mins by spectrofluorimetric analysis
pIC50: −log10 of the molar value.
PARAMETER: pIC50

>>> print(df.to_string())
                                smiles_repr  measured_result
0  Cn1ccc2c(CCNS(=O)(=O)c3ccc(/C=C/C(=O)NO)cc3)cccc21           < 7.00
1  O=C(/C=C/c1ccc(S(=O)(=O)NCCc2cccc3[nH]ccc23)cc1)NO           < 7.00

Switching to the query record.
In: Find the recorded pIC50 belonging to O=C(/C=C/c1cccc(S(=O)(=O)Nc2ccccc2)c1)NO and report it.
Out: < 6.00

###

Test system: ASPC1
Assay: cells
Assay type: functional
Settings: Homo sapiens, ASPC1, 48 h
Description: Growth inhibition of human AsPC1 cells after 48 hrs by sulforhodamine B assay
PARAMETER: GI50 (µM)

Sample answers from the record:
>>> df
                                   compound  parameter  measured_result
0  Nc1ccccc1NC(=O)c1ccc(CNC(=O)OCc2cccnc2)cc1 [ENTINOSTAT]       GI50              6.9
1  O=C(/C=C/c1cccc(S(=O)(=O)NCCc2ccc3[nH]ccc3c2)c1)NO       GI50             2.78
2  O=C(/C=C/c1cccc(S(=O)(=O)NCCc2cccc3[nH]ccc23)c1)NO       GI50             3.85
3  Cn1ccc2c(CCNS(=O)(=O)c3ccc(/C=C/C(=O)NO)cc3)cccc21       GI50             0.16
4  COc1ccc(S(=O)(=O)n2ccc3c(CCNS(=O)(=O)c4ccc(/C=C/C(=O)NO)cc4)cccc32)cc1       GI50             12.5
5  O=C(/C=C/c1ccc(S(=O)(=O)NCCc2ccc3[nH]ccc3c2)cc1)NO       GI50             3.97

(1) O=C(/C=C/c1cccc(S(=O)(=O)Nc2ccccc2)c1)NO [BELINOSTAT]
(2) O=C(/C=C/c1ccc(S(=O)(=O)NCCc2cccc3[nH]ccc23)cc1)NO
In: Select one: 1 or 2 . Criterion: greater recorded GI50. # respond with the chosen item's label
Out: 1
(1: 0.65 µM, 2: 0.24 µM)

src = ChEMBL document CHEMBL4020709
